target: NR2B-R (Rattus norvegicus, UniProt P35439+Q00960); assay: Circular dichroism
Sequence (Q00960 27-390, one chain of several): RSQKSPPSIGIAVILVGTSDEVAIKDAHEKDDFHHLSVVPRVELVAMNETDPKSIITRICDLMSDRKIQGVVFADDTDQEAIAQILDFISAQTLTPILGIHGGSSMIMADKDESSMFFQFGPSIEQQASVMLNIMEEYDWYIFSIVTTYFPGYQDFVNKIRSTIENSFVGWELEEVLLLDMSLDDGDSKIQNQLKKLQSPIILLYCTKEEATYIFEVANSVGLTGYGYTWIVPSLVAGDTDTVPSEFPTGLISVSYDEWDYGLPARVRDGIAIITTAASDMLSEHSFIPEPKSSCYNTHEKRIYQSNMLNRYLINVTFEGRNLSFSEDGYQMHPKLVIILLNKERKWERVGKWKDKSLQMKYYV
Measured quantity: pKd
// pKd here means minus log10 of the molar concentration (mol/L)

// query Please give the measured pKd for this compound: NCCCNCCCCNCCCN [spermine]
// result 4.46

---

molecular target: NR2A-R (Rattus norvegicus, UniProt Q00959)
Sequence (Q00959 23-389): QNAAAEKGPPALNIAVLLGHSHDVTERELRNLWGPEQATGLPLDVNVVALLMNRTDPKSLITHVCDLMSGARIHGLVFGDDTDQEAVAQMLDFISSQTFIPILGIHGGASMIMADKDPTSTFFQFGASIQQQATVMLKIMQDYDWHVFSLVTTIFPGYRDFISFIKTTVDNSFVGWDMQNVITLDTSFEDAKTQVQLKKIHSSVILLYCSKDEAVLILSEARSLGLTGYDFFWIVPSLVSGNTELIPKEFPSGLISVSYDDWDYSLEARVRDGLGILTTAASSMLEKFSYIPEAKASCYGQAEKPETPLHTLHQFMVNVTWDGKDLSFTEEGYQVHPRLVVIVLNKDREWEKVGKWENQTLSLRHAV
Measured quantity: Kd

// query Please give the measured Kd for this compound: NCCCNCCCCNCCCN
// result 133 µM

---

biological target: NR2B-R (regulatory domain of NMDA receptor NR2B subunit) (Rattus norvegicus); test: [14C]spermine filter binding to purified NR2B-R; conditions: 40 µM [14C]spermine; % of binding with no addition
Assign [14C]Spermine bound to NR2B-R in presence of addition, % to each entry below.
Field: numeric (%). Do not append units.

// query Find [14C]Spermine bound to NR2B-R in presence of addition, % (NR2B-R (regulatory domain of NMDA receptor NR2B subunit) (Rattus norvegicus)) for the entry CC(C(O)c1ccc(O)cc1)N1CCC(Cc2ccccc2)CC1 (stereo not shown)
// result 108

// query Record: N[C@@H](CCC(=O)O)C(=O)O [Glutamate, glutamate]
// result 102

// query Record: NCCCNCCCCNCCCN
// result 7

// query Record: NCCCCNCCCN
// result 6

---

biological target: NR1-R (regulatory domain of NMDA receptor NR1 subunit) (Rattus norvegicus); assay: [14C]spermine filter binding to purified NR1-R
Measured quantity: Kd

// query Please give the measured Kd for this compound: NCCCNCCCCNCCCN [spermine]
// result 19 µM

---

biological target: NR2B-R (regulatory domain of NMDA receptor NR2B subunit) (Rattus norvegicus, UniProt Q00960); test: [3H]ifenprodil filter binding to purified NR2B-R; settings: 0.4 µM [3H]ifenprodil; % of binding with no addition
Sequence (Q00960 27-390): as the sequence (Q00960 27-390, one chain of several) above
Measured quantity: [3H]Ifenprodil bound to NR2B-R in presence of addition, % (%)
Field: numeric (%). Do not append units.

// query Please give the measured [3H]Ifenprodil bound to NR2B-R in presence of addition, % for this compound: N[C@@H](CCC(=O)O)C(=O)O [Glutamate, glutamate]
// result 103

// query Record: NCC(=O)O [Glycine, glycine]
// result 102

// query Record: CC(C(O)c1ccc(O)cc1)N1CCC(Cc2ccccc2)CC1 (centres unmarked) [ifenprodil]
// result 15

// query Record: NCCCNCCCCNCCCN [spermine]
// result 99

// query Record: NCCCCNCCCN [Spermidine, spermidine]
// result 98

---

target: NR1/NR2B receptors (Rattus norvegicus, UniProt P35439+Q00960); assay: Voltage clamp recording in Xenopus oocytes expressing NR1/NR2B
Sequence (Q00960 27-1482, other chains not shown): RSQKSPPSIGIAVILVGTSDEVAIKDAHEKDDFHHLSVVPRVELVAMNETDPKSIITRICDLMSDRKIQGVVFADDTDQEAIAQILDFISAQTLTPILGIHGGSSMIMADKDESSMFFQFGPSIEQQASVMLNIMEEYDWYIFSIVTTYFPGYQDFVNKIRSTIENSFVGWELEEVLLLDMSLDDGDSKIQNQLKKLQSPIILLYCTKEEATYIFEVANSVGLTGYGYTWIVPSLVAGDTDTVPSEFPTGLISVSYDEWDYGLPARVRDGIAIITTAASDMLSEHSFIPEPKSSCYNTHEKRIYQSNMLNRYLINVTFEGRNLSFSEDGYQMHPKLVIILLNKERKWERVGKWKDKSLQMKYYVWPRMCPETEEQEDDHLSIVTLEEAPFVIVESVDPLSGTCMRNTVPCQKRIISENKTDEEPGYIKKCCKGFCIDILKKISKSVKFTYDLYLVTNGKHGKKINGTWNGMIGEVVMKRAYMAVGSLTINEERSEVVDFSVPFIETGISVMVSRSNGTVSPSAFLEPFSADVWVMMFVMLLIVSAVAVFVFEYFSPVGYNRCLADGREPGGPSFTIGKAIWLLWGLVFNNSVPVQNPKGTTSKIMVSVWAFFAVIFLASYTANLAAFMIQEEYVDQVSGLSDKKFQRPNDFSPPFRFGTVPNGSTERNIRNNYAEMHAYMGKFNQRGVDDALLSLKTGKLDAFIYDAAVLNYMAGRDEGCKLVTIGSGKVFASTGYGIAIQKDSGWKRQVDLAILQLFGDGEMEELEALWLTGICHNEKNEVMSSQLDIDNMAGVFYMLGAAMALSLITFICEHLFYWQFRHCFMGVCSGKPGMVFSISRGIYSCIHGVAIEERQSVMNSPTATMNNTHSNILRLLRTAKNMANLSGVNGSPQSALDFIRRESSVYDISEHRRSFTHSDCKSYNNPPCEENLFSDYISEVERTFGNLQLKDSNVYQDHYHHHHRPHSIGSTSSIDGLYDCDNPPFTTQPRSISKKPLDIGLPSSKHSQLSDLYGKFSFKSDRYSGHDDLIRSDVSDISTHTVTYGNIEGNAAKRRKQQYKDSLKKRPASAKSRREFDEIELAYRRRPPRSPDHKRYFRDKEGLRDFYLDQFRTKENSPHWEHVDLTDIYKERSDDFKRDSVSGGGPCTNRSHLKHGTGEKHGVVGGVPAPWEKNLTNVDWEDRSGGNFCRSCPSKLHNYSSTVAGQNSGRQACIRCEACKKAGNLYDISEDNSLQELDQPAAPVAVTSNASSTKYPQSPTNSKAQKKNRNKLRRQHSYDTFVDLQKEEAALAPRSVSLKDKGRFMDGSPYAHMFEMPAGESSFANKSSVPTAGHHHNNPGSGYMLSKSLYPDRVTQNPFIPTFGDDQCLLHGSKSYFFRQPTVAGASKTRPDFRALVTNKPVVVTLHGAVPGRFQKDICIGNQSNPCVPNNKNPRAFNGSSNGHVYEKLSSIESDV
Measured quantity: EC50 (µM)
Field: numeric (µM). Do not append units.

// query Please give the measured EC50 for this molecule: NCCCNCCCCNCCCN [spermine]
// result 78

---

biological target: NR1-R (E181Q) (Rattus norvegicus, UniProt P35439, E181Q); test: biochemical
Measured quantity: pKd
// pKd here means minus log10 of the molar concentration (mol/L)

// query Please give the measured pKd for this compound: NCCCNCCCCNCCCN
// result 4.13

---

biological target: NR1/NR2A receptors (Rattus norvegicus, UniProt P35439+Q00959); experiment: Voltage clamp recording in Xenopus oocytes expressing NR1/NR2A
Sequence (Q00959 23-1464, other chains not shown): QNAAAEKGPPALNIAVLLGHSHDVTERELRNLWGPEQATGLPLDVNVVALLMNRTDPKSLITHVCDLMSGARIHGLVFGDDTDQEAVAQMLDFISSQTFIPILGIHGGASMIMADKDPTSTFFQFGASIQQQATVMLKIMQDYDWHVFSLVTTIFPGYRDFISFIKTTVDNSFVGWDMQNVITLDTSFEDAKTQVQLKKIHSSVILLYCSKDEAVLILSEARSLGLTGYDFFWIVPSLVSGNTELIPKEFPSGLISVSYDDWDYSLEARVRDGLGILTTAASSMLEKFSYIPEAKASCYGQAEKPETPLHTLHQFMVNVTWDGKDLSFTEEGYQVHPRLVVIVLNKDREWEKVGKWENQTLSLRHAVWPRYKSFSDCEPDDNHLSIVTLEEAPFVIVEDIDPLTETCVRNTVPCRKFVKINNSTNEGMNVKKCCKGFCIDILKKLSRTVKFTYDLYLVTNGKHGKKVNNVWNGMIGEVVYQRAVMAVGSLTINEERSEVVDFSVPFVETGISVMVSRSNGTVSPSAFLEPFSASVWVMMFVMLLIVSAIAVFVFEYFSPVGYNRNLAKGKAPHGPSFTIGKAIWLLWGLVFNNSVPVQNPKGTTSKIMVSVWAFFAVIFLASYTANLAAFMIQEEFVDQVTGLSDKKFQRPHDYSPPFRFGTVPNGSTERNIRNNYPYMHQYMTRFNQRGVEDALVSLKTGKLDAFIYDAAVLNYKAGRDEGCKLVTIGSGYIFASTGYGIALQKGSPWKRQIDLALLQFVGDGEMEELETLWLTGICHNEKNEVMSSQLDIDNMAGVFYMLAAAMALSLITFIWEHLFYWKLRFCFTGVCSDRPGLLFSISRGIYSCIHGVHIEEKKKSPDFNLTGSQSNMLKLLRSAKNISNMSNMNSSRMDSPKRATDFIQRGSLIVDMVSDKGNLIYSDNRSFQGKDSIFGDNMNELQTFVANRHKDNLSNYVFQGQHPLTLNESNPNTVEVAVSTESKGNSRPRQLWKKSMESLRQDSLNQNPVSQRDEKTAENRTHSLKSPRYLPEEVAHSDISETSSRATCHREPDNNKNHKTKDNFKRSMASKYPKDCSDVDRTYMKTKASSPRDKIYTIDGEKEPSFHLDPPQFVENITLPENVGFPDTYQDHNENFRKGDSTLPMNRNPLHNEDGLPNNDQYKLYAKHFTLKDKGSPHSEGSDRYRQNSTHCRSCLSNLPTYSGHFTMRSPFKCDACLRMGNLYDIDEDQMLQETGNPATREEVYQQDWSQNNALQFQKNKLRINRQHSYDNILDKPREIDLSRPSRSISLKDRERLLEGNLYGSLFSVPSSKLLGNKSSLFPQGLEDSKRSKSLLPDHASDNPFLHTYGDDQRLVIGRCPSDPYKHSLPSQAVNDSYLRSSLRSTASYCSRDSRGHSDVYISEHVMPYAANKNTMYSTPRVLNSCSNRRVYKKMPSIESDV
Measured quantity: pEC50
// pEC50 here means minus log10 of the molar concentration (mol/L)

// query Please give the measured pEC50 for this molecule: NCCCNCCCCNCCCN
// result 3.56

Data provenance is paper PMC2690642.
